# study-target: T1, MSR1-mediated Dil-AcLDL uptake in HEK293.Myc.hMSR1 cells (Homo sapiens, UniProt P21757)
# T1 construct: expressed in transfected cells; host or cells: HEK293 (lentiviral transduction, hygromycin selection)
# T1 sequence (P21757 1-451): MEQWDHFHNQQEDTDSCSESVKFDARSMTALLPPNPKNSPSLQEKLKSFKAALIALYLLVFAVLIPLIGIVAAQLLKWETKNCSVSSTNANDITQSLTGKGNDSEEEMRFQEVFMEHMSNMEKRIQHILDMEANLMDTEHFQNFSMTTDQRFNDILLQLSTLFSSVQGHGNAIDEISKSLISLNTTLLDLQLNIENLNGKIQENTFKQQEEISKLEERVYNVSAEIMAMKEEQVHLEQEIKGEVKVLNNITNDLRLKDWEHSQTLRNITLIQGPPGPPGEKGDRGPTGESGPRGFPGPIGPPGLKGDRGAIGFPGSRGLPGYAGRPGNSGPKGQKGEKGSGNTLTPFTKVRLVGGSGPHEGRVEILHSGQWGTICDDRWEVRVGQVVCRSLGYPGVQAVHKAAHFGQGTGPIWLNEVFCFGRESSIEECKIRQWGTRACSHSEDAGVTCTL
# protocol: Ligand uptake assay, Dil-AcLDL
# Type: cell-based
# condition-summary: maximum inhibition, 10 μg/mL Dil-AcLDL
readout-type: Dil-Acetylated LDL % Inhibition (%)
Give just the number in %; leave the unit off.

Here are 3 molecules together with their reported answers.
{"molecule": "H1H21227N: \"anti-MSR1 antibodies ... (21227N, 21231N, 21234N) were produced with the original human Fcγ portion\"; \"H1H\" = human IgG1 Fc (antibody, V domains shown, human IgG1 Fc, \"anti-MSR1 antibodies ; (21227N, 21231N, 21234N) were produced with the original human Fcγ portion\"; \"H1H\" = human IgG1 Fc) VH: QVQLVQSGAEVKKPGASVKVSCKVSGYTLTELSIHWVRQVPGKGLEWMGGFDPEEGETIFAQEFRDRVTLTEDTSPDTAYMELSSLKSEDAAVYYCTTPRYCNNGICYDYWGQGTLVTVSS VL: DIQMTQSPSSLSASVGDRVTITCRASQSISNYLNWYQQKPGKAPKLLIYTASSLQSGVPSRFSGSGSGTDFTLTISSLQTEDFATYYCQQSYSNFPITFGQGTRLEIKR", "Dil-Acetylated LDL % Inhibition / %": 65}
{"molecule": "H1H21231N: \"anti-MSR1 antibodies ... (21227N, 21231N, 21234N) were produced with the original human Fcγ portion\"; \"H1H\" = human IgG1 Fc (antibody, V domains shown, human IgG1 Fc, \"anti-MSR1 antibodies ; (21227N, 21231N, 21234N) were produced with the original human Fcγ portion\"; \"H1H\" = human IgG1 Fc) VH: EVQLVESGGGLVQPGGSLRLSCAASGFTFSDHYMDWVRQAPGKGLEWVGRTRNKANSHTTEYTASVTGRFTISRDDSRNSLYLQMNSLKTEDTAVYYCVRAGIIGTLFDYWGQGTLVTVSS VL: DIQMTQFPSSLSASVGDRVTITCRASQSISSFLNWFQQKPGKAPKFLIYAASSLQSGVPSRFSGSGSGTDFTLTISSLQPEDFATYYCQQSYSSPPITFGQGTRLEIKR", "Dil-Acetylated LDL % Inhibition / %": 63}
{"molecule": "H1H21227N-N297Q: \"modified versions of 21227N (H1H21227N-N297Q and H1H21227N-N297D)\"; anti-MSR1 antibody \"with a N297Q single point mutation\" (antibody, V domains shown) VH: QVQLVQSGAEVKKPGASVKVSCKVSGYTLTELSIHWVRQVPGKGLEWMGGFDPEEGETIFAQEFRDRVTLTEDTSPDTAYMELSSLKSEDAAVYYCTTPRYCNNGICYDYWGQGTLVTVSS VL: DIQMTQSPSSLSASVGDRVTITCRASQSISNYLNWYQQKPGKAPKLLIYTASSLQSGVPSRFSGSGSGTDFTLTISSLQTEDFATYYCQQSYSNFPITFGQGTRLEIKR", "Dil-Acetylated LDL % Inhibition / %": 65}

Please turn your attention to the following entry.
Request: Query (molecule): H1H21231N-N297Q: modified version of "21231N (H1H21231N-N297Q) anti-MSR1 antibodies" with "a N297Q single point mutation" (antibody, V domains shown) VH: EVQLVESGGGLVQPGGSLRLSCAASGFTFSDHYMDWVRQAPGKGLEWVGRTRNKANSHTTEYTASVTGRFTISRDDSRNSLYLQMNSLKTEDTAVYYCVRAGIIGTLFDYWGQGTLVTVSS VL: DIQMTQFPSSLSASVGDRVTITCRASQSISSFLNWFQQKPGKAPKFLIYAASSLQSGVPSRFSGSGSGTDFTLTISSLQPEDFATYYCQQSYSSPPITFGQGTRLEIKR ; field requested: Dil-Acetylated LDL % Inhibition
Response: 62
